Target: S1P-4 (Homo sapiens, UniProt O95977)
Construct: crude membranes
Sequence (O95977 whole entry): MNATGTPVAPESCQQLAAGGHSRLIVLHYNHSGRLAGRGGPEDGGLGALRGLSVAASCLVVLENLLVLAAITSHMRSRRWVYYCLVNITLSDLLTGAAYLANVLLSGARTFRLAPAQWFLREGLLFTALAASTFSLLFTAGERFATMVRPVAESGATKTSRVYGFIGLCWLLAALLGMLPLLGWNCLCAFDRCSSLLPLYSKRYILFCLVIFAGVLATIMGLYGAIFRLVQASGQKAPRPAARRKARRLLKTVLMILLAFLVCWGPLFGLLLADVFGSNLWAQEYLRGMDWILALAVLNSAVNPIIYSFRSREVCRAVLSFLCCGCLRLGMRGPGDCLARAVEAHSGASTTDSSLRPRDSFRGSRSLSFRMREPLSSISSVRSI
Assay: GTPγS binding assay using S1P receptor/HEK293 membrane preparations
Details: GTPγS binding, transiently transfected HEK293 membranes
Recorded pEC50 for the following compounds
Conceptually, pEC50 converts a concentration in mol/L into minus its log10.

Worked examples follow.
Find the recorded pEC50 belonging to CCCCCCCCc1ccc(CCC(N)(CO)COP(=O)(O)O)cc1 (single isomer, unassigned) [(S)-FTY720-P] and report it.
9.12

Fill in: pEC50 of `N[C@@](CO)(CCc1ccc(OCCc2ccc(C(F)(F)F)cc2)cc1)COP(=O)(O)O` is ___
8.18

Now let's try a different one.
Query: pEC50; subject: CCCCCCCCc1ccc(CCC(N)(CO)COP(=O)(O)O)cc1 (single isomer, unassigned) [(R)-FTY720-P]
7.10

----------
Target: S1P-3 (Homo sapiens)
Construct: crude membranes
Sequence (Q99500 whole entry): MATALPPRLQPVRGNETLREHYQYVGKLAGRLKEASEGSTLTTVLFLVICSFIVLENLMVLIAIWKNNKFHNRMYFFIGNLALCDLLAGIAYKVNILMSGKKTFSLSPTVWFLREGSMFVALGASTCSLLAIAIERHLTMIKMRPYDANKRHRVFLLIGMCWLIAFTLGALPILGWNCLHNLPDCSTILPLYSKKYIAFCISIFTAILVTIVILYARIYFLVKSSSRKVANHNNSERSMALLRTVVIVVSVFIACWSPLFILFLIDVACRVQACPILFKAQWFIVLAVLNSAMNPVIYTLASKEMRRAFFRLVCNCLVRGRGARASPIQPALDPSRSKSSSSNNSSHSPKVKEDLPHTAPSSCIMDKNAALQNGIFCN
Assay: GTPγS binding assay using S1P receptor/HEK293 membrane preparations
Conditions: GTPγS binding, transiently transfected HEK293 membranes
measurement-label: pEC50
pEC50 field: float, defined as -log10 of concentration (mol/L).

pEC50 for `N[C@@](CO)(CCc1ccc(OCCc2ccc(C(F)(F)F)cc2)cc1)COP(=O)(O)O` ?
6.85

----------
Molecular target: S1P-2 (Homo sapiens, UniProt O95136)
Construct: expressed in transfected cells; host or cells: HEK293 (transient, calcium phosphate); crude membranes
Sequence (O95136 whole entry): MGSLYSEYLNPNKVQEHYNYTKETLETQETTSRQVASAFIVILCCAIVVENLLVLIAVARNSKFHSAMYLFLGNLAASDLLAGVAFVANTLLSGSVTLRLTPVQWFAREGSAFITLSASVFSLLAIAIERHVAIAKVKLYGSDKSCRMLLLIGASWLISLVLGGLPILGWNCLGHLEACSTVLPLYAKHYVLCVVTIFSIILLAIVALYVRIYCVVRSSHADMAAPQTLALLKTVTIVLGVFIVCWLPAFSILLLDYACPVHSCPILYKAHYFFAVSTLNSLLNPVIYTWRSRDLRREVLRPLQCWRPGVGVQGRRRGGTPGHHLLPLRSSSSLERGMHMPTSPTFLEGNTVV
Assay: GTPγS binding assay using S1P receptor/HEK293 membrane preparations
Assay type: biochemical
Conditions: transiently transfected HEK293 membranes
measurement-label: EC50

Fill in: EC50 of N[C@@](CO)(CCc1ccc(OCCc2ccc(C(F)(F)F)cc2)cc1)COP(=O)(O)O [Ex. 14] is ___
> 10 µM

----------
Molecular target: S1P-5 (Homo sapiens)
Construct: crude membranes
Sequence (Q9H228 whole entry): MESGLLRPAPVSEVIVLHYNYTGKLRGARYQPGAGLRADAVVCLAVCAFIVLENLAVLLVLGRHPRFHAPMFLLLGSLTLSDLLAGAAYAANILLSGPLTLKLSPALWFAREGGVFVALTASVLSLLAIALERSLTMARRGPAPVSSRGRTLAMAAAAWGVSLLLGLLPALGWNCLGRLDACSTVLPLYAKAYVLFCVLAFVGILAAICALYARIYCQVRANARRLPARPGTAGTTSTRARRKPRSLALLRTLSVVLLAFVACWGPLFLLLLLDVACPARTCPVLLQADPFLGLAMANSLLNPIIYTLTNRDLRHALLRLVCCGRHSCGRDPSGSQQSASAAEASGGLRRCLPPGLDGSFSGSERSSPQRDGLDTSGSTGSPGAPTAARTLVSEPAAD
Test: GTPγS binding assay using S1P receptor/HEK293 membrane preparations
Settings: GTPγS binding, transiently transfected HEK293 membranes
measurement-label: pEC50
Kindly note that pEC50 refers to -log10 of the concentration in mol/L and answer with the value alone.

Given the entry N[C@@](CO)(CCc1ccc(OCCc2ccc(C(F)(F)F)cc2)cc1)COP(=O)(O)O [Ex. 14] , report its measured pEC50.
8.11
